Recorded values, source the RepoRT retention time repository (doi:10.1021/acs.analchem.1c00972).

# measurementNotes: RP, Waters ACQUITY UPLC BEH C18, 100 × 1 mm, 1.7 µm, 50 °C, 0.3 mL/min, estimated dead time 0.17 min; A: water + 10 mM ammonium bicarbonate; B: 10% water + 90% methanol + 10 mM ammonium bicarbonate; gradient (min/%B) 0/0 15/100 21/100 22/0 30/0
# conditionContext: stereoisomer not certain
endpointName: LC retention time (min)
Output spec: scalar in min, unitless text.

• Cc1ccc(S(=O)(=O)O)c(C)c1 [m-Xylene-4-sulfonic acid] = 7.83
• COc1ccc(CCC(=O)c2c(O)cc(OC3OC(CO)C(O)C(O)C3OC3OC(C)C(O)C(O)C3O)cc2O)cc1O (stereo not drawn) [Neohesperidin DC] = 10.4
• Cc1cc(=O)[nH]c(C(C)C)n1 [2-Isopropyl-6-methyl-pyrimidin-4-ol] = 8.01
• O=C(O)C(F)(F)C(F)(F)C(F)(F)C(F)(F)C(F)(F)F [Perfluorohexanoic acid] = 12.7
• C#CC1(O)CCC2C3CCc4cc(O)ccc4C3CCC21C (stereo not drawn) [17-alpha-Ethinylestradiol] = 14.3

Write down LC retention time measured for item NC1=NCCN1Cc1ccc(Cl)nc1 [Imidacloprid-guanidine]
6.72

Look up and report measured LC retention time for this entry: CC=C(C)C(=O)OC1CCN2CC=C(COC(=O)C(O)(C(C)OC)C(C)(C)O)C12 (stereo not drawn) [Lasiocarpine]
13.9

Please list LC retention time recorded for the compound COC(C)C(O)(C(=O)OCC1=CCN2CCC(O)C12)C(C)(C)O (stereo not drawn) [Europine]
9.86

###

# measurementNotes: RP, Waters ACQUITY UPLC BEH C18, 100 × 1 mm, 1.7 µm, 50 °C, 0.3 mL/min, estimated dead time 0.17 min; A: water + 10 mM ammonium bicarbonate; B: 10% water + 90% methanol + 10 mM ammonium bicarbonate; gradient (min/%B) 0/0 15/100 21/100 22/0 30/0
# conditionContext: stereoisomer not certain
Quick rule for you: LC retention time under 10 min gets T, anything else gets F.

• N#Cc1c(Cl)c(Cl)c(O)c(C(N)=O)c1Cl = T
• CC(=O)OCC(COC(C)=O)OC(C)=O [Triacetin] = T
• CCCc1nc(C)c2c(=O)[nH]c(-c3cc(S(=O)(=O)N4CCN(CC)CC4)ccc3OCC)nn12 [Vardenafil] = F
• OCCN1CCN(CCC=C2c3ccccc3Sc3ccc(C(F)(F)F)cc32)CC1 [Flupentixol] = F
• CCOC(=O)c1ccc(O)cc1 [Ethylparaben] = F

Consider CC1(C)CC(O)CC(C)(C)N1 [2,2,6,6-Tetramethylpiperidin-4-ol] . Does its LC retention time lie strictly below 10 min?
T

Lab log: compare recorded LC retention time with 10 min; is it strictly lower for CCCCCCCCCCCCc1ccccc1S(=O)(=O)O [Dodecylbenzenesulfonic acid] ?
F

Criterion: LC retention time strictly below 10 min. Is it met by COc1ccc2c(c1)[nH]c1c(C)nccc12 [Harmine] ?
F

Decide: LC retention time of O=C(O)C(F)(F)C(F)(F)C(F)(F)F [Perfluorobutanoic acid] strictly below 10 min?
T

Confirm or reject: LC retention time of COP(=O)(OC)OC(Br)C(Cl)(Cl)Br (centres undefined) [Naled] lies strictly below 10 min
F

Answer whether the molecule C=C(C)C1C2OC(=O)C1C1(O)CC3OC34C(=O)OC2C14C (centres undefined) [Picrotoxinin] has LC retention time strictly less than 10 min
T

Say whether its LC retention time is strictly beneath 10 min. Entry: O=C(Nc1ccccc1)c1ccccc1I [Benodanil]
F

Check if LC retention time falls below 10 min for CCC12CCCN3CCc4c(n(c5ccccc45)C(O)(C(=O)OC)C1)C32 (centres undefined) [Vincamin] .
F
